- measurement-protocol: Cytotoxicity, cell viability assay in normal cells
- Format: cell-based
- conditions-used: human, relative cell viability (Fig 6b), replicates
metric: viability at 0.000244141 μM (%)
Just the number in %, nothing appended.

[ask] Reported viability at 0.000244141 μM for COC(=O)C12OCC34C(CC5C(C)=C(OC(=O)CC(C)N)C(=O)CC5(C)C3C(O)C1O)OC(=O)C(OC(=O)C=C(C)C)C24 (stereo not shown) : what is it?
[reply] 96.2

###

Could you please report measured viability at 0.0625 μM for the items listed next?
- measurement-protocol: Cytotoxicity, cell viability assay in normal cells
- Format: cell-based
- conditions-used: human, normal T-cells from healthy donors, T-cells, Con. 0.0625 μM, fraction of 0 μM control; read-out: relative cell viability (Fig 6b), replicates
Just the number in %, nothing appended.

[ask] Reported viability at 0.0625 μM for C[C@H](NC(=O)c1c(N)nn2cccnc12)c1cc2cccc(C#Cc3cnn(C)c3)c2c(=O)n1-c1ccccc1 : what is it?
[reply] 83.1

[ask] Reported viability at 0.0625 μM for C[C@H](Nc1ncnc2nc[nH]c12)c1cc2cccc(Cl)c2c(=O)n1-c1ccccc1 : what is it?
[reply] 102

[ask] Reported viability at 0.0625 μM for COc1c(OCCCN2CCOCC2)ccc2c1N=C(NC(=O)c1cnc(N)nc1)N1CCN=C21 : what is it?
[reply] 107

###

- measurement-protocol: Cytotoxicity, cell viability assay in normal cells
- Assay type: cell-based
- conditions-used: human, T-cells, Con. 0.015625 μM, fraction of 0 μM control; read-out: relative cell viability (Fig 6b), replicates
metric: viability at 0.015625 μM (%)
Just the number in %, nothing appended.

[ask] Reported viability at 0.015625 μM for COC(=O)C12OCC34C(CC5C(C)=C(OC(=O)CNC(=O)OC(C)(C)C)C(=O)CC5(C)C3C(O)C1O)OC(=O)C(OC(=O)C=C(C)C)C24 (stereo not shown) : what is it?
[reply] 83.4

###

- measurement-protocol: Cytotoxicity, cell viability assay in normal cells
- Assay type: cell-based
- conditions-used: human, normal B-cells from healthy donors, B-cells, Con. 0.000244141 μM, fraction of 0 μM control; read-out: relative cell viability (Fig 6c), replicates
- Procedure: Human peripheral blood mononuclear cells (PBMCs), normal T-cells and B-cells were provided by the University of Pennsylvania Human Immunology Core (HIC), and Patient-derived xenografts (PDXs) were obtained from Fox Chase Cancer Center (FCCC). […] 5000 cells as indicated were cultured in 96-well plate with 100 μl of media. […] Luminescence was detected using a multi-mode reader Cytation 5 (BioTek, Winooski, VT). […]
metric: viability at 0.000244141 μM (%)
Just the number in %, nothing appended.

[ask] Reported viability at 0.000244141 μM for COc1c(OCCCN2CCOCC2)ccc2c1N=C(NC(=O)c1cnc(N)nc1)N1CCN=C21 [Copanlisib] : what is it?
[reply] 90.1

[ask] Reported viability at 0.000244141 μM for CC[C@H](Nc1ncnc2[nH]cnc12)c1nc2cccc(F)c2c(=O)n1-c1ccccc1 [Idelalisib] : what is it?
[reply] 101

[ask] Reported viability at 0.000244141 μM for C[C@H](NC(=O)c1c(N)nn2cccnc12)c1cc2cccc(C#Cc3cnn(C)c3)c2c(=O)n1-c1ccccc1 [IPI-549] : what is it?
[reply] 107
